B1: CPXM2 (parent)
chain: TASTKNCMVGYDMGATRCDFTLSK

variants of: B1; test: protein stability index of a GFP-peptide fusion (GPS, HEK-293T) (PSI 1-6); higher = more stable; conditions: c terminus: a fixed tail appended;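 further: lentivirally expressed fusions sorted by FACS into six bins by GFP to DsRed ratio, PSI derived from sequencing read proportions per bin multiplied by bin number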
Criterion: protein stability index meeting or surpassing 2. Met: Condition met. Not met: Condition not met.

Example entries and their recorded answers appear below.
M8S = Condition met
C18H = Condition met
Y11V = Condition met
R17M = Condition met
C18W = Condition met
G14R = Condition met
T21A = Condition met
F20N = Condition met
S23N = Condition met
T4S = Condition not met

Request: Is protein stability index for N6Q at or above 2?
Result: Condition met

Request: Is protein stability index for V9N at or above 2?
Result: Condition met

Request: Is protein stability index for T21Y at or above 2?
Result: Condition not met

Request: Is protein stability index for D19Q at or above 2?
Result: Condition not met
